- target or system: S. aureus GyrB ATPase (Staphylococcus aureus, UniProt P0A0K8)
- Sequence (P0AES4 whole entry): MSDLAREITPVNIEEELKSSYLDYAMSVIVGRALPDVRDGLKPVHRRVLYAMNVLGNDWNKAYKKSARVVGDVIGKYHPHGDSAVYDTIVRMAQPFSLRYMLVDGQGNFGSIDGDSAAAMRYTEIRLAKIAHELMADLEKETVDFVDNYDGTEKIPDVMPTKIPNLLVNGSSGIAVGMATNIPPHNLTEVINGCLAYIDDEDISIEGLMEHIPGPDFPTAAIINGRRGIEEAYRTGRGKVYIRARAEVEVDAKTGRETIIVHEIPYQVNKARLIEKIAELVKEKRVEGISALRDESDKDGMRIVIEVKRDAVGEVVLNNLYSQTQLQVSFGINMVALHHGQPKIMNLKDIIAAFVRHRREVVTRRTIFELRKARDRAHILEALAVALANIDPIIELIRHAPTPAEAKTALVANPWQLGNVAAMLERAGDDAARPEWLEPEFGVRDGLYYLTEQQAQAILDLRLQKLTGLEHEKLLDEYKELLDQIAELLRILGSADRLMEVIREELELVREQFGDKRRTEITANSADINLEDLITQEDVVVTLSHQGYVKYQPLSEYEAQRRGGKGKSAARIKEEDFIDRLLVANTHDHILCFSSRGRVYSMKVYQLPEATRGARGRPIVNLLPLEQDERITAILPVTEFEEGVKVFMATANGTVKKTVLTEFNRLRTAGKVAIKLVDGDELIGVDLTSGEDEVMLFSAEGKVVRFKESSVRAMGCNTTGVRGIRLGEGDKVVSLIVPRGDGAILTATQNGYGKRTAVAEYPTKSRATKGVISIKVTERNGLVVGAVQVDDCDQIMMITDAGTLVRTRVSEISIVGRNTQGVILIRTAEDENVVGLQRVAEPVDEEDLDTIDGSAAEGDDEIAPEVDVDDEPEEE
- Sequence (P0A0K8 whole entry): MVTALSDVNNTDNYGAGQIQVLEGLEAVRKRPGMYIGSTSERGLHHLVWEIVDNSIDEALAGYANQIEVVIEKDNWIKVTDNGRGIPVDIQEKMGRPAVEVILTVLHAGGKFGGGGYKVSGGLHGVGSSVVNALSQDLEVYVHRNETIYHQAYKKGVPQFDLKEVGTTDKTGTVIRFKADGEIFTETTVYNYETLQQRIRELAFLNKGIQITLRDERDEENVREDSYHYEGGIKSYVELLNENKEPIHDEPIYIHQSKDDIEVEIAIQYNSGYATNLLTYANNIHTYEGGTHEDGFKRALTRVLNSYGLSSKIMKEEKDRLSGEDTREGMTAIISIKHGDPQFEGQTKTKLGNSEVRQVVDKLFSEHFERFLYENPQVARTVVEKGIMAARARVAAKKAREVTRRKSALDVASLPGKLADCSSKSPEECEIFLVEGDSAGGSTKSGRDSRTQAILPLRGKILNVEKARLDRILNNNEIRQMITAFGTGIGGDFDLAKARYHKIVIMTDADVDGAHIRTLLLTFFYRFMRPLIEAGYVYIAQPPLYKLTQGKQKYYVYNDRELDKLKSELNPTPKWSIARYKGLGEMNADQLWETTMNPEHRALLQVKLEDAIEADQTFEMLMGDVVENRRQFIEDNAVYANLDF
- assay name: S. aureus GyrB ATPase inhibition (ammonium molybdate/malachite green phosphate detection)
- Type: biochemical
- assay setup: compound concentration of 1 μM
Below, each entry is listed alongside its reported inhibition at 1 µM.
Value expressed in %; do not type the unit.

Example molecules with recorded inhibition at 1 µM:
{"query smiles": "CCOC(=O)c1sc(N2CC[C@@H](NC(=O)c3[nH]c(C)c(Cl)c3Cl)[C@@H](OC)C2)nc1-c1ncccn1", "uom": "%", "inhibition at 1 µM": 102}
{"query smiles": "Cc1[nH]c(C(=O)N[C@@H]2CCN(c3nc(-c4ncnn4C)c(C(=O)O)s3)C[C@@H]2OCc2ccccc2)c(C#N)c1Cl", "uom": "%", "inhibition at 1 µM": 115}
{"query smiles": "CCOC(=O)c1sc(N2CC[C@@H](NC(=O)c3[nH]c(C)c(Cl)c3Cl)[C@@H](OC)C2)nc1-c1cc(N(C)C)nc(N(C)C)n1", "uom": "%", "inhibition at 1 µM": 97}

Field: next molecule
Qu. For COC(=O)c1sc(N2CC[C@@H](NC(=O)c3[nH]c(C)c(Cl)c3Cl)[C@@H](OC)C2)nc1-c1csc(N)n1 , what is its reported inhibition at 1 µM?
Ans. 101

----------
Below, each entry is listed alongside its reported inhibition at 1 µM.
- target or system: UniProt:P0A0K8
- assay name: S. aureus GyrB ATPase inhibition (ammonium molybdate/malachite green phosphate detection)
- Assay type: biochemical
- assay setup: compound concentration of 1 μM

Example molecules with recorded inhibition at 1 µM:
{"molecule": "COc1ccnc(-c2nc(N3CC[C@@H](NC(=O)c4[nH]c(C)c(Cl)c4Cl)[C@@H](OC)C3)sc2C(=O)O)n1 [Example 42]", "inhibition at 1 µM": "99.9%"}
{"molecule": "CCOC(=O)c1sc(N2CC[C@@H](NC(=O)c3[nH]c(C)c(Cl)c3Cl)[C@@H](F)C2)nc1-c1ncccn1 [Example 45]", "inhibition at 1 µM": "100%"}
{"molecule": "CCOC(=O)c1sc(N2CC[C@@H](NC(=O)c3[nH]c(C)c(Cl)c3Cl)[C@@H](OC)C2)nc1-c1nnc(C)o1 [Example 85]", "inhibition at 1 µM": "102%"}
{"molecule": "Cc1[nH]c(C(=O)N[C@@H]2CCN(c3nc(-c4cnccn4)c(C(=O)O)s3)C[C@@H]2F)c(Cl)c1Cl [Example 14]", "inhibition at 1 µM": "98.3%"}
{"molecule": "CO[C@H]1CN(c2nc(-c3nc4ccccc4s3)c(C(=O)O)s2)CC[C@H]1NC(=O)c1[nH]c(C)c(Cl)c1Cl [Example 13]", "inhibition at 1 µM": "101%"}

Qu. What reported inhibition at 1 µM corresponds to COc1cc(OC)nc(-c2nc(N3CC[C@@H](NC(=O)c4[nH]c(C)c(Cl)c4Cl)[C@@H](OC)C3)sc2C(=O)O)n1 [Example 11] on UniProt:P0A0K8?
Ans. 92%

Qu. What reported inhibition at 1 µM corresponds to COc1cccc(-c2nc(N3CC[C@@H](NC(=O)c4[nH]c(C)c(Cl)c4Cl)[C@@H](F)C3)sc2C(=O)O)n1 [Example 117] on UniProt:P0A0K8?
Ans. 108%

Qu. What reported inhibition at 1 µM corresponds to CO[C@H]1CN(c2nc(-c3nccs3)c(C(=O)O)s2)CC[C@H]1NC(=O)c1[nH]c(C)c(Cl)c1Cl [Example 3] on UniProt:P0A0K8?
Ans. 98.6%

Qu. What reported inhibition at 1 µM corresponds to CO[C@H]1CN(c2nc(-c3cnc(C)cn3)c(C(=O)O)s2)CC[C@H]1NC(=O)c1[nH]c(C)c(Cl)c1Cl [Example 113] on UniProt:P0A0K8?
Ans. 92.9%

Qu. What reported inhibition at 1 µM corresponds to COCCn1ccnc1-c1nc(N2CC[C@@H](NC(=O)c3[nH]c(C)c(C#N)c3Cl)[C@@H](OC)C2)sc1C(=O)OC [Example 69] on UniProt:P0A0K8?
Ans. 100%

Qu. What reported inhibition at 1 µM corresponds to CO[C@H]1CN(c2nc(-c3ncnn3C)c(C(=O)O)s2)CC[C@H]1NC(=O)c1[nH]c(C)c(Cl)c1Cl [Example 27] on UniProt:P0A0K8?
Ans. 99.9%

Qu. What reported inhibition at 1 µM corresponds to COCCn1ccnc1-c1nc(N2CC[C@@H](NC(=O)c3[nH]c(C)c(Cl)c3Cl)[C@@H](F)C2)sc1C(=O)O [Example 26] on UniProt:P0A0K8?
Ans. 97.4%

Qu. What reported inhibition at 1 µM corresponds to Cc1[nH]c(C(=O)N[C@@H]2CCN(c3nc(-c4ccncn4)c(C(=O)O)s3)C[C@@H]2F)c(Cl)c1Cl [Example 5] on UniProt:P0A0K8?
Ans. 99.4%

Qu. What reported inhibition at 1 µM corresponds to COC(=O)c1sc(N2CC[C@@H](NC(=O)c3[nH]c(C)c(Cl)c3Cl)[C@@H](F)C2)nc1-c1nccs1 [Example 47] on UniProt:P0A0K8?
Ans. 101%
